test: in vitro; conditions: human, Exp 1 CC50 HelaR19
Parameter Measured: CC50 (µM)
Numbers only, in µM.

Example entries begin here.
Compound: COc1ccc(N(Cc2ccc(F)cc2)C(=O)c2ccco2)cc1
Value Units: µM
Measured Result: 40.4

Compound: O=C(c1ccco1)N(Cc1ccc(C(F)(F)F)cc1)c1ccccc1 [Compound 19d]
Value Units: µM
Measured Result: 92.3

Compound: O=C(c1ccco1)N(Cc1ccccc1)c1ccc(C(F)(F)F)cc1 [Compound 19i]
Value Units: µM
Measured Result: 68

Moving on to the next compound.
Any idea what its CC50 is? The compound is COc1ccc(N(Cc2ccc(C(F)(F)F)cc2)C(=O)c2ccco2)cc1 [Compound 19e]
53
